systemName: N-type calcium channel (Homo sapiens)
Construct: expressed in transfected cells
Sequence (Q00975 whole entry): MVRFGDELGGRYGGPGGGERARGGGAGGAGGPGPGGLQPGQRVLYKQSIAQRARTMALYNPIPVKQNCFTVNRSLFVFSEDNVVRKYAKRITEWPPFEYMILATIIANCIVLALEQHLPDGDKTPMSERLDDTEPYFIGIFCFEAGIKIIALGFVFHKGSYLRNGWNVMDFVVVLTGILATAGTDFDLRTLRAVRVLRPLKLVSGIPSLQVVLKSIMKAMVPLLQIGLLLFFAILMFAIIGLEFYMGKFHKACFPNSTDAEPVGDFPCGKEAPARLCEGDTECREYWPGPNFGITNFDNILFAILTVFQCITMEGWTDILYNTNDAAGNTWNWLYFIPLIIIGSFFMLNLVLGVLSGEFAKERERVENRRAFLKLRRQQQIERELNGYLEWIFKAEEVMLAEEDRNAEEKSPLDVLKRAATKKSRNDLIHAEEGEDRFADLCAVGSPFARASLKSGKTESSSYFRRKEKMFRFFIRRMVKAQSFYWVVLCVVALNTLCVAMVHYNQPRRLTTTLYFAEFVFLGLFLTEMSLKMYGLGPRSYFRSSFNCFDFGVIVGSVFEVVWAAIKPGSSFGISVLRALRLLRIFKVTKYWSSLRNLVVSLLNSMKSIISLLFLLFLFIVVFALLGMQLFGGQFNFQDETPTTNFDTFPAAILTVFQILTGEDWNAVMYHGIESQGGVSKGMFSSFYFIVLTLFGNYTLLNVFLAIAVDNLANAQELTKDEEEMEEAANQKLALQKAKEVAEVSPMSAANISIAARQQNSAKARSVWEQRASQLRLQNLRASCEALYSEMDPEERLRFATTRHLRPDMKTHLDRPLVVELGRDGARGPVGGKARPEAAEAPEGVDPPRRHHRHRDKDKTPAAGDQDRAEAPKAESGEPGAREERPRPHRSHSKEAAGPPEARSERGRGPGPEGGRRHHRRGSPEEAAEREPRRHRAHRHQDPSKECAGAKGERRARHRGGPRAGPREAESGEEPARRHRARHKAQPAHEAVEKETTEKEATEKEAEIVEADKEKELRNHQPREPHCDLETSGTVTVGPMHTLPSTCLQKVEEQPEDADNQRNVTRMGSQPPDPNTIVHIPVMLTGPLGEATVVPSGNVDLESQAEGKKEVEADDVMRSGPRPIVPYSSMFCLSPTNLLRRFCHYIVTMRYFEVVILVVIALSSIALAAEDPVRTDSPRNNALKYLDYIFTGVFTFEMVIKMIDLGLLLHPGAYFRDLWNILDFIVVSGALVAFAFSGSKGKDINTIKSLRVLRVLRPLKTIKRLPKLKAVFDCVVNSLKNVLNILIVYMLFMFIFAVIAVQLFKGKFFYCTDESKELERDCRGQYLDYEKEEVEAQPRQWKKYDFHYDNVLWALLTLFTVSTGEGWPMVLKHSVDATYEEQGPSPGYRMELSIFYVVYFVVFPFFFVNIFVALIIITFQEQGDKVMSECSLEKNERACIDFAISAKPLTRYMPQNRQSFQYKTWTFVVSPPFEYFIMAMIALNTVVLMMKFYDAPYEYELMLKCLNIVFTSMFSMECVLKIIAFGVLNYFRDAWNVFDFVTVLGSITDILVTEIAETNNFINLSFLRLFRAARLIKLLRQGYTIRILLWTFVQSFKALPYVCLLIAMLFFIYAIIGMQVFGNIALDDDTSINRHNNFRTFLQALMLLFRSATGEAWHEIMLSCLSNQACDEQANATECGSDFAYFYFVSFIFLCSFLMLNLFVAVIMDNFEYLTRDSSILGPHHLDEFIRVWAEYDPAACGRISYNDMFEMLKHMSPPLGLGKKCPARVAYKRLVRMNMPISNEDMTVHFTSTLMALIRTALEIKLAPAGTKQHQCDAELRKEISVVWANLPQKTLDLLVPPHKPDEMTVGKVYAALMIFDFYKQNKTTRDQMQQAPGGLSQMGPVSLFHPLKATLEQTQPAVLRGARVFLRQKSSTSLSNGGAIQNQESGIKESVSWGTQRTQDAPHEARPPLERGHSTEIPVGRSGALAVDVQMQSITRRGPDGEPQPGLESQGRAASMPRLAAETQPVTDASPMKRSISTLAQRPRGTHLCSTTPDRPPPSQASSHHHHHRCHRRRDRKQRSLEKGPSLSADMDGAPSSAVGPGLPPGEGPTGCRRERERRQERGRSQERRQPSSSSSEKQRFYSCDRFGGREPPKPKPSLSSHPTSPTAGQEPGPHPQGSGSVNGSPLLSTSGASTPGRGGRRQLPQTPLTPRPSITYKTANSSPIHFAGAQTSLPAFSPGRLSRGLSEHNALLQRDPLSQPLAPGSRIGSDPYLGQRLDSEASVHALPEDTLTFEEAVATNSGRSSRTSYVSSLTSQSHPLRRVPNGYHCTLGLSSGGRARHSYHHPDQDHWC
Sequence (P54284 whole entry partner): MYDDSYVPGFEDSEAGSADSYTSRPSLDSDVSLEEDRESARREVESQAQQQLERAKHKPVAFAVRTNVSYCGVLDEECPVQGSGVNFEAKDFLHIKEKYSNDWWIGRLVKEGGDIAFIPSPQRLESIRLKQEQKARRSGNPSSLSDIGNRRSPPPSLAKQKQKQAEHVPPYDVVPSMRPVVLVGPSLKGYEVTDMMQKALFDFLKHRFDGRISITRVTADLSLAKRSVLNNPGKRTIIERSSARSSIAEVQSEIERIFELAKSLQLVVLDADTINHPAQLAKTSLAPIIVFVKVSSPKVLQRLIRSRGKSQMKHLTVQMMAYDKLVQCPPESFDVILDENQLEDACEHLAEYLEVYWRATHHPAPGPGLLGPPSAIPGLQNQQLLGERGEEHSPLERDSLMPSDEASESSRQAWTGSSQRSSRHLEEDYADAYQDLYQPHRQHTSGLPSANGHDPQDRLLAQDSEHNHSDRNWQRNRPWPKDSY
Sequence (P54289 25-956 partner limits assumed): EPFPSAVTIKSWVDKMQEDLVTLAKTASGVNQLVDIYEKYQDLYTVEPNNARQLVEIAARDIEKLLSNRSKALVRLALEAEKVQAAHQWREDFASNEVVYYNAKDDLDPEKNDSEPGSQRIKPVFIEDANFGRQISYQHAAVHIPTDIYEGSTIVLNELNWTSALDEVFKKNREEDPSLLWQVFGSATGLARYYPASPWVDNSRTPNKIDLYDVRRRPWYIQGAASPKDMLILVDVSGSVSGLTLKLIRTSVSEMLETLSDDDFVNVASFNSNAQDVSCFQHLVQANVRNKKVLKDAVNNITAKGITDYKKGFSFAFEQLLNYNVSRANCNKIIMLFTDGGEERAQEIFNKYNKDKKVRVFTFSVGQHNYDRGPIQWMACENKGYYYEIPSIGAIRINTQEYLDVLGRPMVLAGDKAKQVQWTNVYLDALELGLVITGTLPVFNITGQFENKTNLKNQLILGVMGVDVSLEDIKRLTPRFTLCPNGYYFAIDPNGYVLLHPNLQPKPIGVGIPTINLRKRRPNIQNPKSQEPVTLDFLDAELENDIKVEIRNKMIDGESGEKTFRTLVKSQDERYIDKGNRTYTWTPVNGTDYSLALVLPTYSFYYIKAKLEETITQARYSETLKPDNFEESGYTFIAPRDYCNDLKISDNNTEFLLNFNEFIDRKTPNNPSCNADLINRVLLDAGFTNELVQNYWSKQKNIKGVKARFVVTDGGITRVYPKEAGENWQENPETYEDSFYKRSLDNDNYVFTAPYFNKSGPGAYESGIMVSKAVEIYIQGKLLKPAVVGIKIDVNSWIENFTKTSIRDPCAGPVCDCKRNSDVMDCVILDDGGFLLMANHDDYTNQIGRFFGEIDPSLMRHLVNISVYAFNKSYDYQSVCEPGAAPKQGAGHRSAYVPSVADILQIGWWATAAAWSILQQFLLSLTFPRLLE
Sequence (P54289 957-1103 partner limits assumed): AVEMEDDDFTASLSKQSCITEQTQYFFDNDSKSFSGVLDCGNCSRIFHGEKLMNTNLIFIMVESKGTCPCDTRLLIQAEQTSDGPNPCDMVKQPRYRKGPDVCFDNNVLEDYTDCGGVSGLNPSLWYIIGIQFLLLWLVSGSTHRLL
testDescription: Automated electrophysiology assay (QPatch-HT whole-cell patch clamp)
Type: cell-based
runParameters: 0.1 μM; low frequency (1st pulse of train); read-out: QPatch at Low Frequency % Inhibition
valueType: inhibition at 0.1 µM (%)

Observe how each entry below is paired with its result.
CC(C)CS(=O)(=O)N1Cc2nn(-c3cccc4c3OCO4)c(-c3ccc(Cl)cc3)c2C1 [Cpd 82]    4
CCOc1ccccc1-n1nc2c(c1-c1ccc(Cl)cc1)CN(S(C)(=O)=O)C2 [Cpd 49]    18

P: CCN(CC)S(=O)(=O)N1Cc2nn(-c3ccccc3OC)c(-c3ccc(Cl)cc3)c2C1 [Cpd 56]
Q: COC(=O)C1CCN(S(=O)(=O)N2Cc3nn(-c4ccccc4OC)c(-c4ccc(Cl)cc4)c3C2)CC1 [Cpd 58]
When their inhibition at 0.1 µM values are compared, which is larger, P or Q ? # answer = label of selected item
Q
(Q: 53%, P: 28%)
